Exercise: for every item that follows, state its recorded TGI.
tested on: SNB-19 CNS; experiment: NCI tumour cell line growth inhibition, 48 h

Query string: State TGI (SNB-19 CNS) of COc1ccc(N2C(=O)C3c4[nH]c5ccccc5c4C4CCCCCCC4C3C2=O)cc1 (configuration not stated) .
Result string: 28.1 µM

Query string: State TGI (SNB-19 CNS) of CCC[CH2][Sn]1([CH2]CCC)[O]C(=O)c2ccc(N)cc2[O]1 .
Result string: 2.17 µM

Query string: State TGI (SNB-19 CNS) of CC(C(=O)O)c1ccc(-c2ccccc2)c(F)c1 (configuration not stated) .
Result string: > 100 µM

Query string: State TGI (SNB-19 CNS) of Cc1ccc2sc3ccc(N)cc3c(=O)c2c1 .
Result string: > 100 µM

Query string: State TGI (SNB-19 CNS) of C/C(=N/NC(=S)N1CCN(C(=S)N/N=C(/C)c2ccccn2)CC1)c1ccccn1 .
Result string: > 100 µM

Query string: State TGI (SNB-19 CNS) of Cc1nc2c(n1-c1ccccc1)C(=O)c1ccccc1C2=O .
Result string: > 100 µM

Query string: State TGI (SNB-19 CNS) of NC(=S)N/N=C1\CCCC1C(O)(C(F)(F)Cl)C(F)(F)Cl (configuration not stated) .
Result string: > 10 µM

Query string: State TGI (SNB-19 CNS) of CC(C)(C)n1cc(-c2ccnc(NCCCNS(=O)(=O)c3ccc(Br)cc3)c2)c(-c2cccc(O)c2)n1 .
Result string: 4.37 µM

Query string: State TGI (SNB-19 CNS) of N#Cc1c(C[n+]2ccccc2)c2ccccc2oc1=O .
Result string: > 100 µM

Query string: State TGI (SNB-19 CNS) of CS(=O)(=O)NNS(=O)(=O)c1ccc(Cl)cc1 .
Result string: > 100 µM

Query string: State TGI (SNB-19 CNS) of NNC(=O)Cn1ccnn1 .
Result string: > 100 µM

Query string: State TGI (SNB-19 CNS) of O=P(O)(O)C=C=C1CCCCC1 .
Result string: > 100 µM
